target or system: T1, PTH receptor on SaOS-2/B10 cells (UniProt Q03431 27-593)
T1 construct: whole, on cells; also called PTH/PTHrP receptor
T1 sequence (looked up): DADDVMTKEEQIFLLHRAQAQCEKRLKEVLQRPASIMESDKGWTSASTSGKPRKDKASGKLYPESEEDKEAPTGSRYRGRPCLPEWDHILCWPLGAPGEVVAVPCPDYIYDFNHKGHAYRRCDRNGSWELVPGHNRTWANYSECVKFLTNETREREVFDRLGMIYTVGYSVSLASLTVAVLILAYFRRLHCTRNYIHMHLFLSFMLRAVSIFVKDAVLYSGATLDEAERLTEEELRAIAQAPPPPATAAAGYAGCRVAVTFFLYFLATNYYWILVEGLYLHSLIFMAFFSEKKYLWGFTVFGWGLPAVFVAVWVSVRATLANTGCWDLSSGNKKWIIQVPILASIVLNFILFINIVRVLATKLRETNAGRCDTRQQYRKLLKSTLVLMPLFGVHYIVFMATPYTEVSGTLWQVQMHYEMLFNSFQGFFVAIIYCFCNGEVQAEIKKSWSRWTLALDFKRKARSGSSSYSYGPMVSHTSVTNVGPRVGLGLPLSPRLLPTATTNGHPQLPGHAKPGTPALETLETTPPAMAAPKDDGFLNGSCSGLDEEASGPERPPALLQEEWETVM
assay explanation: competition with mono-125I-[Nle8,18,Tyr34]bPTH(1-34)NH2 on SaOS-2/B10 cells
No end group written: not given here.
IC50 less than 30 nM is fulfilled; IC50 greater than or equal to 30 nM is not fulfilled.

# binder, class label
measured = [
    ("SVSEIQLMHNLGKHLNSMERVELLEKLLEKLHNF-NH2 (Synthetic analog of human PTH(1-34), carboxamide at the C-terminus) [[Glu^25,29, Leu^23,27,31, Lys^30]hPTH(1-34)NH2]", "not fulfilled"),
    ("AVSEHQLLHDKGKSIQDLRRRFLLHHLLAELHTA-NH2 (Synthetic analog of human PTHrP(1-34), carboxamide at the C-terminus) [[Leu^23,28,31]hPTHrP(1-34)NH2]", "fulfilled"),
    ("AVSEHQLLHDKGKSIQDLRRRELLEKLLELLHTA-NH2 (Synthetic analog of human PTHrP(1-34), carboxamide at the C-terminus) [[Glu^22,25,29, Leu^23,28,30,31, Lys^26]hPTHrP(1-34)NH2]", "not fulfilled"),
    ("AVSEHQLLHDKGKSIQDLRRREFLEKLIEKIHTA-NH2 (Synthetic analog of human PTHrP(1-34), carboxamide at the C-terminus) [[Glu^22,25,29, Lys^26,30]hPTHrP(1-34)NH2]", "fulfilled"),
]

Shifting focus to the binder that follows.
Is IC50 of SVSEIQLMHNLGKHLNSMERVELLRKLLQDLHNF-NH2 (Synthetic analog of human PTH(1-34), carboxamide at the C-terminus) [[Leu^23,27,31]hPTH(1-34)NH2] strictly below 30 nM?
not fulfilled
